Test system: SW 1271 complex spheroids, viability
ASSAY_EXPLANATION: Anticancer human tumor SW 1271 cell line growth inhibition [LSD1];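 also: spheroids exposed to agents for 7 days before luminescence read; 100% = DMSO vehicle control viability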
DETAILS: second compound 0.316 µM; first compound 0.316 µM; hits give low values
Text: Multicellular complex tumor spheroid response to LSD1 Inhibitor Iadademstat in combination with a variety of drugs and investigational agents in selected tumor cell lines The current study was undertaken to assess response to LSD1 inhibitors in combination with standard-of-care drugs and investigational agents in solid tumor complex spheroid models as well as in the K-562 leukemia. […] Compounds. […] If the clinical Cmax for an agent had not been determined, the highest concentration tested was 10 microM. […]
Output 1 (yes) for records whose viability, T/C is lower than 80%, 0 (no) for records at or above 80%.

Study these solved cases before continuing.
COMPOUND: Nc1ncn(C2CC(O)C(CO)O2)c(=O)n1 (configuration not stated) + NC1CCC(NC2CC2c2ccccc2)CC1
CLASS_NAME: 1 (yes)

COMPOUND: COc1ccc([C@@H](O)c2cc(-c3ncnc4cc(N5CCOCC5)ccc34)c(F)cc2Cl)nn1 + NC1CC1c1ccc(-c2cccc(O)c2)cc1
CLASS_NAME: 1 (yes)

COMPOUND: COc1cc(Nc2ncc3c(n2)-c2ccc(Cl)cc2C(c2c(F)cccc2OC)=NC3)ccc1C(=O)O + NC1CC1c1ccc(-c2cccc(O)c2)cc1
CLASS_NAME: 1 (yes)

COMPOUND: O=C(c1cc(Cc2n[nH]c(=O)c3ccccc23)ccc1F)N1CCN(C(=O)C2CC2)CC1 + NC1CCC(NC2CC2c2ccccc2)CC1
CLASS_NAME: 0 (no)

Now for a further compound.
Query: Say whether its viability, T/C is strictly beneath 80%. Entry: O=C(C=Cn1cnc(-c2cc(C(F)(F)F)cc(C(F)(F)F)c2)n1)NNc1cnccn1 + NC1CC1c1ccc(-c2cccc(O)c2)cc1
Response: 1 (yes)

* * *

System: SW 1271 complex spheroids, viability
ASSAY_EXPLANATION: Anticancer human tumor SW 1271 cell line growth inhibition [LSD1];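 also: spheroids exposed to agents for 7 days before luminescence read; 100% = DMSO vehicle control viability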
DETAILS: second compound 0.1 µM; first compound 0.316 µM; hits give low values
Description: Multicellular complex tumor spheroid response to LSD1 Inhibitor Iadademstat in combination with a variety of drugs and investigational agents in selected tumor cell lines The current study was undertaken to assess response to LSD1 inhibitors in combination with standard-of-care drugs and investigational agents in solid tumor complex spheroid models as well as in the K-562 leukemia. […] Compounds. […] If the clinical Cmax for an agent had not been determined, the highest concentration tested was 10 microM. […]
List of viability, T/C values.
Reply numerically in %, unit not repeated.

Example cases with answers are listed next.
COMPOUND: COc1cc(Nc2ncc3c(n2)-c2ccc(Cl)cc2C(c2c(F)cccc2OC)=NC3)ccc1C(=O)O + NC1CCC(NC2CC2c2ccccc2)CC1
MEASUREMENT_TARGET: SW 1271 complex spheroids, viability
UNIT_ABBREVIATION: %
viability, T/C: 42.9
//
COMPOUND: O=C(c1cc(Cc2n[nH]c(=O)c3ccccc23)ccc1F)N1CCN(C(=O)C2CC2)CC1 + NC1CC1c1ccc(-c2cccc(O)c2)cc1
MEASUREMENT_TARGET: SW 1271 complex spheroids, viability
UNIT_ABBREVIATION: %
viability, T/C: 92.7
//
COMPOUND: CC1COCCN1c1cc(C2(S(C)(=N)=O)CC2)nc(-c2ccnc3[nH]ccc23)n1 (stereo not given) + NC1CCC(NC2CC2c2ccccc2)CC1
MEASUREMENT_TARGET: SW 1271 complex spheroids, viability
UNIT_ABBREVIATION: %
viability, T/C: 111
//
COMPOUND: CC1(C)CCC(CN2CCN(c3ccc(C(=O)NS(=O)(=O)c4ccc(NCC5CCOCC5)c([N+](=O)[O-])c4)c(Oc4cnc5[nH]ccc5c4)c3)CC2)=C(c2ccc(Cl)cc2)C1 + NC1CC1c1ccc(-c2cccc(O)c2)cc1
MEASUREMENT_TARGET: SW 1271 complex spheroids, viability
UNIT_ABBREVIATION: %
viability, T/C: 91.6
//
COMPOUND: CC1(C)CCC(CN2CCN(c3ccc(C(=O)NS(=O)(=O)c4ccc(NCC5CCOCC5)c([N+](=O)[O-])c4)c(Oc4cnc5[nH]ccc5c4)c3)CC2)=C(c2ccc(Cl)cc2)C1 + NC1CCC(NC2CC2c2ccccc2)CC1
MEASUREMENT_TARGET: SW 1271 complex spheroids, viability
UNIT_ABBREVIATION: %
viability, T/C: 94.6

Memo: COc1cc(Nc2ncc3c(n2)-c2ccc(Cl)cc2C(c2c(F)cccc2OC)=NC3)ccc1C(=O)O + NC1CC1c1ccc(-c2cccc(O)c2)cc1 , reported viability, T/C: 29

// viability, T/C value for CC1COCCN1c1cc(C2(S(C)(=N)=O)CC2)nc(-c2ccnc3[nH]ccc23)n1 (stereo not given) + NC1CC1c1ccc(-c2cccc(O)c2)cc1 : 65.5

The reported viability, T/C of the compound CC(C)c1c(-c2ccccc2)nc2c(C#N)c[nH]n2c1=O + NC1CCC(NC2CC2c2ccccc2)CC1 was 79.1

In plain terms, CC1COCCN1c1cc(-c2ccnn2C)c2ccnc(-c3ccn[nH]3)c2n1 (stereo not given) + NC1CC1c1ccc(-c2cccc(O)c2)cc1 has a documented viability, T/C of 39.4

viability, T/C in this record for COc1ccc([C@@H](O)c2cc(-c3ncnc4cc(N5CCOCC5)ccc34)c(F)cc2Cl)nn1 + NC1CC1c1ccc(-c2cccc(O)c2)cc1 : 55
